# key: entry, value: pEC50
# Target of assay: REV-ERBα LBD (human; residues 281-614 Δ324-422) (Homo sapiens, UniProt P20393, DEL324-422)
# Construct: 6×Histag-REV-ERBα LBD (human; residues 281-614 Δ324-422); made in house; host or cells: Escherichia coli
# Sequence (P20393 with tags, fused parts or gaps DEL324-422): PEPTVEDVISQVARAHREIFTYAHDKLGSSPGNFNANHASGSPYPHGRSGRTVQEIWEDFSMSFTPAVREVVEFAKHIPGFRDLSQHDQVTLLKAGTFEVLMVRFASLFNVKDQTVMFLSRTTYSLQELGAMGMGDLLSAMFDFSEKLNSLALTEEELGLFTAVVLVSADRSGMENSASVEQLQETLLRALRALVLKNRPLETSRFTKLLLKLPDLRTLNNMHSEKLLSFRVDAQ
# Sequence (Q9Y618 2335-2356 partner limits assumed): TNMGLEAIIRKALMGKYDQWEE
# Protocol details: TR-FRET corepressor interaction assay (REV-ERBα LBD, FITC-SMRT peptide)
# Assay type: biochemical
# Details: Table 2, read-out: REVERBα agonism (EC50 class, FRET assay)
pEC50: −log10 of the molar value.

| Smiles notation | pEC50 |
| --- | --- |
| CC(C)Cn1cc(CNS(=O)(=O)N2CCCC2)c2ccc(-c3ccncc3)cc21 | > 6.30 |
| CN(C)S(=O)(=O)NCCc1cn(CC(C)(C)C)c2cc(Br)ccc12 | 5.52 to 6.30 |
| CN(C)S(=O)(=O)NCCn1cc(CC(F)(F)C(F)(F)F)c2cc(Cl)ccc21 | 5.52 to 6.30 |
| CC(C)Cn1cc(CCNS(=O)(=O)N(C)C)c2ccc(-c3ccncc3C(F)(F)F)cc21 | > 6.30 |

These entries and their values trace back to patent US20230339886A1.
